- run_description: Half life in C57BL/6 mouse at 2 mg/kg, sc by LC-MS analysis
- Type: ADME, organism-based
- assay_context: in vivo
attribute_measured: half-life (h)
Supply the numeric figure in h, leaving out any unit text.

The following compounds have reported results that may help.
{"compound": "CCN(CC)CCCNC1CCCN(C(=O)c2ccc(NC(=O)c3ccccc3C)cc2C)c2ccc(Cl)cc21 (centres undefined)", "attribute_measured": "half-life", "unit_tag": "h", "value": 2.9}
{"compound": "Cc1ccccc1C(=O)Nc1ccc(C(=O)N2CCCC(NCCCN3CCOCC3)c3cc(Cl)ccc32)c(C)c1 (centres undefined)", "attribute_measured": "half-life", "unit_tag": "h", "value": 4.3}
{"compound": "Cc1ccccc1C(=O)Nc1ccc(C(=O)N2CCCC(NCCCN3CCCCC3)c3cc(Cl)ccc32)c(C)c1 (centres undefined)", "attribute_measured": "half-life", "unit_tag": "h", "value": 3.9}

Request: Find the recorded half-life belonging to Cc1ccccc1C(=O)Nc1ccc(C(=O)N2CCCC(NCCCCN3CCOCC3)c3cc(Cl)ccc32)c(C)c1 (centres undefined) and report it.
Result: 5.4

* * *

- run_description: Elimination rate constant in C57BL/6 mouse at 2 mg/kg, sc by LC-MS analysis
- Format: ADME, organism-based
- assay_context: in vivo
Entries annotated with measured k el
Supply the numeric figure in s⁻¹, leaving out any unit text.

The following compounds have reported results that may help.
{"compound": "Cc1ccccc1C(=O)Nc1ccc(C(=O)N2CCCC(NCCCN3CCN(C)CC3)c3cc(Cl)ccc32)c(C)c1 (centres undefined)", "k el (s⁻¹)": "2.75e-05"}
{"compound": "CCN(CC)CCCNC1CCCN(C(=O)c2ccc(NC(=O)c3ccccc3C)cc2C)c2ccc(Cl)cc21 (centres undefined)", "k el (s⁻¹)": "8.33e-05"}
{"compound": "Cc1ccccc1C(=O)Nc1ccc(C(=O)N2CCCC(NCCCN3CCOCC3)c3cc(Cl)ccc32)c(C)c1 (centres undefined)", "k el (s⁻¹)": "4.72e-05"}

API: the following record is the query input.
Request: Find the recorded k el belonging to Cc1ccccc1C(=O)Nc1ccc(C(=O)N2CCCC(NCCCc3ccncc3)c3cc(Cl)ccc32)c(C)c1 (centres undefined) and report it.
Result: 0.000361

Measured values drawn from ChEMBL document CHEMBL5154831 for this set.
